B1: Haloalkane dehalogenase, D4Z2G1 (parent)
chain: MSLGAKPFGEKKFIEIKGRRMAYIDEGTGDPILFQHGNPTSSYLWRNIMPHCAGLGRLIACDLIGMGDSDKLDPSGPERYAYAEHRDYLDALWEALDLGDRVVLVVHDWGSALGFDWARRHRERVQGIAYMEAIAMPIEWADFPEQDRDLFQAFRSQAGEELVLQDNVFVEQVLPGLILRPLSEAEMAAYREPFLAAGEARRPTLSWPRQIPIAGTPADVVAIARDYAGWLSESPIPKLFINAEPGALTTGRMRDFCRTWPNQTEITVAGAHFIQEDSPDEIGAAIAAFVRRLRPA

Variants of: B1
experimental-setup: Sphingobium indicum (strain DSM 16413 / CCM 7287 / MTCC 6362 / UT26 / NBRC 101211 / UT26S); pH 7.5; Thermal; fluorescence; Na-Hepes 50 mM; reversible: no; structure 1MJ5; whole UniProt chain shown
Each entry gets class 0 if its change of melting temperature, mutant - wild type (higher = more stable) stays under 0 °C, and class 1 if its change of melting temperature, mutant - wild type (higher = more stable) is 0 °C or above.

>>> print(df.to_string())
     mutant_id  answer_label
0        L248W       class 1
1        A200P       class 0
2         E26H       class 0
3  V106C G114C       class 1
4        D255K       class 0
